// provenance: ChEMBL document CHEMBL4325896

# measurement_protocol: Tmax in Sprague-Dawley rat at 50 mg/kg, po by LC-MS analysis
# Format: ADME, organism-based
# study_conditions: in vivo
measure: Tmax (h)
Report the value in h with no unit label.

q: Item C[C@@H]1O[C@H]2O[C@H]3[C@@H](OC[C@H](O)[C@@H]3O)OC(=O)[C@]34CCC(C)(C)C[C@H]3C3=CC[C@@H]5[C@@]6(C)C[C@H](O)[C@H](O[C@@H]7O[C@H](CO)[C@@H](O)[C@H](O)[C@H]7O[C@@H]7OC[C@H](OC(=O)C[C@](C)(O)CC(=O)O[C@@H]1[C@@H](O[C@@H]1OC[C@@H](O)[C@H](O)[C@H]1O)[C@H]2O)[C@H](O)[C@H]7O)[C@@](C)(CO)[C@@H]6CC[C@@]5(C)[C@]3(C)CC4 has what recorded Tmax?
a: 2.75
